test system: KM12; experiment: NCI tumour cell line growth inhibition, 48 h
Active and inactive are the calls of the source. Rule as the data show it: active = GI50 up to about 1.1 µM and inactive = higher.
Reported GI50 values for the following compounds.

compound	GI50
O=C(OCc1ccc([N+](=O)[O-])cc1)N1c2ccccc2[C@@]23O[C@]24CCC[C@H]3C#C/C=C\C#C[C@H]14	> 100 µM (inactive)
CSc1s[s+]c(SC)c1[O-]	62.4 µM (inactive)
Nc1nc2c(C(=O)O)c3ccc([N+](=O)[O-])cc3c(=O)n2c2ccccc12	25.8 µM (inactive)
O=C([O-])C(O)C(O)C(=O)O.[K+] (stereo not given) [POTASSIUM HYDROGENTARTRATE]	> 100 µM (inactive)
COc1cccc(NC(=O)C(=O)C(C(C)=O)c2nc3ccc(Cl)cc3nc2O)c1 (stereo not given)	> 100 µM (inactive)
C[C@@H]1S[C@H](c2c(F)cccc2Cl)n2c1nc1ccccc12	5.53 µM (inactive)

Reported GI50 for COc1cc(OC)c2c(c1OC)OCC(Cc1ccc(O)cc1)C2=O (stereo not given) : what is it?
> 25 µM (inactive)

Now this one: COC(=O)C1=C(c2ccc3c(c2)OCO3)O[C@H](c2ccc3c(c2)OCO3)[C@H]1COC(C)=O
62.4 µM (inactive)

Now this one: NNc1ncc2c(n1)-c1ccccc1OC2
54.1 µM (inactive)

Now this one: N=c1c2c(-c3ccccc3)c[nH]c2ncn1N
> 100 µM (inactive)

====

Reported GI50 values for the following molecules.
tested on: HT-29; experiment: NCI tumour cell line growth inhibition, 48 h
Activity calls are given as the source filed them. Cut-off read from the data, not from the text of the source: active = GI50 up to about 1.1 µM and inactive = higher.

molecule	subject-of-test	GI50
COC(=O)Cc1cc(OC)c(OC)cc1Br	HT-29	> 100 µM (inactive)

Reported GI50 for NS(=O)(=O)c1ccc(NC(=O)c2cc([N+](=O)[O-])cc([N+](=O)[O-])c2)cc1 : what is it?
43.1 µM (inactive)

Now this one: CC#CC#C/C=C1/O[C@]2(CCC(OC(C)=O)CO2)[C@@H]2O[C@H]12 (stereo not given in full)
28.9 µM (inactive)

Now this one: NNc1ncc2c(n1)-c1ccccc1OC2
43.9 µM (inactive)

Now this one: CCOC(=O)c1ccc(NCC#CCN2CCOCC2)cc1
69.2 µM (inactive)

Now this one: CC(=O)OC1CCn2nnc(COC(=O)NC(C)C)c21 (stereo not given)
> 100 µM (inactive)

Now this one: COC(=O)c1ccc(CCC2=CC(=O)C(Br)=CC2=O)cc1
16.7 µM (inactive)

Now this one: Cc1cc(-c2[nH]c(C(=O)O)cc2I)on1
> 100 µM (inactive)

Now this one: CC1(C)N=C(N)N=C(N)N1c1ccc(CCCCCCc2ccc(S(=O)(=O)F)cc2)cc1
< 0.0468 µM (active)

Now this one: [O-]c1c2cc(-[n+]3c(-c4ccccc4)cc(-c4ccccc4)cc3-c3ccccc3)cc1CO[C@@H](c1ccccc1)[C@H](c1ccccc1)OCc1cccc(n1)CO[C@@H](c1ccccc1)[C@H](c1ccccc1)OC2
0.0318 µM (active)

Now this one: CC(=O)OCC1OC(O[C@@H]2c3c(O)c4c(c(O)c3C3=C(NN(c5ccc([N+](=O)[O-])cc5[N+](=O)[O-])[Se]3=O)[C@@]2(C)O)C(=O)c2ccccc2C4=O)C(OC(C)=O)C(OC(C)=O)C1OC(C)=O (stereo not given in full)
0.239 µM (active)

Now this one: O=C1C(NCCF)=C(Cl)C(=O)c2ncccc21
2.47 µM (inactive)

Now this one: CC12CC(Sc3ccccc3N1)c1ccccc1O2 (stereo not given)
19.7 µM (inactive)

Now this one: N=C(N)SCc1cccc2c(=O)cc(-c3ccccc3)oc12
4.84 µM (inactive)
